FYI, the data here is from patent US12378186B2.

Target chain: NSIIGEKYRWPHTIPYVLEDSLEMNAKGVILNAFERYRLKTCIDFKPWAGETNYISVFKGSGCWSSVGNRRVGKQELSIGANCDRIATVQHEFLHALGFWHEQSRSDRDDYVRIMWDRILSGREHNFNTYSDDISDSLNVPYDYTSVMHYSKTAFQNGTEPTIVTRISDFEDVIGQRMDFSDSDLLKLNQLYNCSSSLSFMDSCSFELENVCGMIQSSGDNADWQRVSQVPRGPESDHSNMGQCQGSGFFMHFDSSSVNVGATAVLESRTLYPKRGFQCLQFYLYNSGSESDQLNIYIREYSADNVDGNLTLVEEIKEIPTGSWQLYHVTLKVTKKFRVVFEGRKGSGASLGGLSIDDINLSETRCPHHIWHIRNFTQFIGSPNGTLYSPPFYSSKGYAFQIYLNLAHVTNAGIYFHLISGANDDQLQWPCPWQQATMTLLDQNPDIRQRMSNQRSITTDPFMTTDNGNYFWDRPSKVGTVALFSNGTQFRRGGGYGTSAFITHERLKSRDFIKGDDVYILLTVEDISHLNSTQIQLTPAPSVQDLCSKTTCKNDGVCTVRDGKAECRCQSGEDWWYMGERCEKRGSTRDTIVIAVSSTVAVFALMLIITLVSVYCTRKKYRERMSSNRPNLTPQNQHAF
So basically, the class depends on measured Ki, and the ranges are class 1: < 0.2 µM; class 2: ≥ 0.2 µM and < 0.4 µM; class 3: ≥ 0.4 µM

Field: example entries. Status: answers known.
[
  {
    "Structure": "O=C(CN(Cc1cccc(O)c1F)Cc1cccc(O)c1F)NO",
    "Qualitative Label": "class 3"
  },
  {
    "Structure": "O=C(CN(Cc1ccc(Cl)c(O)c1F)Cc1ccc(Cl)c(O)c1F)NO",
    "Qualitative Label": "class 1"
  },
  {
    "Structure": "COc1cccc(CN(CC(=O)NO)Cc2cccc(C(=O)O)c2)c1",
    "Qualitative Label": "class 2"
  },
  {
    "Structure": "COc1ccc(CN(CCCC(=O)NO)Cc2cccc(C(=O)O)c2)cc1",
    "Qualitative Label": "class 2"
  },
  {
    "Structure": "COc1ccc(CN(CC(=O)NO)Cc2cccc(C(=O)O)c2)cc1F",
    "Qualitative Label": "class 1"
  },
  {
    "Structure": "O=C(CNCc1cccc(C(=O)O)c1)NO",
    "Qualitative Label": "class 1"
  }
]

Asked: Which class holds O=C(CN(Cc1ccc(C(=O)O)cc1)Cc1ccc(C(=O)O)cc1)NO ?
Given back: class 2

Asked: Then this compound: C[C@H](NCc1cccc(C(=O)O)c1)C(=O)NO
Given back: class 3

Asked: Then this compound: CCCOc1ccc(CN(CC(=O)NO)Cc2cccc(C(=O)O)c2)cc1
Given back: class 3

Asked: Then this compound: CCOC(=O)c1cccc(CN(CC(=O)NO)Cc2cccc(C(=O)OCC)c2)c1
Given back: class 3

Asked: Then this compound: O=C(CN(Cc1ccc(F)c(O)c1)Cc1ccc(F)c(O)c1)NO
Given back: class 2

Asked: Then this compound: O=C(CN(Cc1cc(F)c(O)c(F)c1)Cc1cc(F)c(O)c(F)c1)NO
Given back: class 1

Asked: Then this compound: O=C(O)CC[C@@H](NCc1cccc(C(=O)O)c1)C(=O)NO
Given back: class 2

Asked: Then this compound: O=C(O)C[C@@H](NCc1cccc(C(=O)O)c1)C(=O)NO
Given back: class 2

Asked: Then this compound: C[C@@H](NCc1cccc(C(=O)O)c1)C(=O)NO
Given back: class 3

Asked: Then this compound: CCOC(=O)c1cccc(CN(CC(=O)NO)Cc2cccc(C(=O)O)c2)c1
Given back: class 2
